target: T1, mouse vascular endothelial growth factor receptor-2 Fc chimera (Flk-1-Fc) (mouse, UniProt P35918 20-762); test: radioactive equilibrium binding assay, 1 nM Flk-1-Fc, % of input bound
T1 construct: Bought from R&D Systems; also called mouse VEGFR-2; not shown: Fc part of the purchased chimera, not specified
T1 sequence (P35918 20-762, change not shown): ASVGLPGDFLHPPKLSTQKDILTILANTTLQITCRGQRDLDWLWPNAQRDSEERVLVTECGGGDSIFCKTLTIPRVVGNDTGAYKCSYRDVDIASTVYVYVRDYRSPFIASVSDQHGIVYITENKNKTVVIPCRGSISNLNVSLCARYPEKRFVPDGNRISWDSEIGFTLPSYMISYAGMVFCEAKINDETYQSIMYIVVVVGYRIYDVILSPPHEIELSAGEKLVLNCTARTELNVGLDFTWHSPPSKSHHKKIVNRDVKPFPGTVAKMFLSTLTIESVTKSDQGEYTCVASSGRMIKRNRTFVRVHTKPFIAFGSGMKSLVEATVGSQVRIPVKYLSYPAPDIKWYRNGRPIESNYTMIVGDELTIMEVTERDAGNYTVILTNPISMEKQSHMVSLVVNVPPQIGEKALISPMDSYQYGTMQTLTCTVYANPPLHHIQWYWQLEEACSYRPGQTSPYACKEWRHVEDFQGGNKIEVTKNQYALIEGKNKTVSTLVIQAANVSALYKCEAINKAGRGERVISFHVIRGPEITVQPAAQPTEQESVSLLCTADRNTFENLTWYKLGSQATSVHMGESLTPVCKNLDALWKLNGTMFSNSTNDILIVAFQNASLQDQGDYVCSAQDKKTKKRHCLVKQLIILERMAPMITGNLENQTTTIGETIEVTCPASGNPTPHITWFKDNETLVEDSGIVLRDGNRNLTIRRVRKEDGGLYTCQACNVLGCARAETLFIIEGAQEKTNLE
Exam item: assign Fulfilled to entries whose Binding to 1 nM Flk-1, % is below 30% and Not fulfilled to entries at or above 30%. Note that a value of exactly 30% receives Not fulfilled.

Below are worked cases with known answers.
Binder	Class
C3 (designed binder, 10Fn3 clone, Del 1-8) EVVAATPTSLLISWRHPHFPTRYYRITYGETGGNSPVQEFTVPLQPPTATISGLKPGVDYTITGYAVTLERNGRELMIPISINYRT	Fulfilled
E9 (designed binder, 10Fn3 clone, Del 1-8) EVVAATPTSLLISWRHPHFPTRYYRITYGETGGNSPVQEFTVPLQPPTATISGLKPGVDYTITGYAVTEERNGRTLRTPISINYRT	Not fulfilled
D12 (designed binder, 10Fn3 clone, Del 1-8) EVVAATPTSLLISWRHPHFPTRYYRITYGETGGNSPVQEFTVPLQPPTATISGLKPGVDYTITGYAVTVERNGRKLMTPISINYRT	Not fulfilled

Lookup: Problem: For the binder E19 (designed binder, 10Fn3 clone, Del 1-8) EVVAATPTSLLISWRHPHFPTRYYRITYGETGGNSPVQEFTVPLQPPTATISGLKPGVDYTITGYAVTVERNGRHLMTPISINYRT , is Binding to 1 nM Flk-1, % under 30%?
Found: Not fulfilled

Lookup: Same question for C2 (designed binder, 10Fn3 clone, Del 1-8) EVVAATPTSLLISWRHPHFPTRYYRITYGETGGNSPVQEFTVPLQPPTATISGLKPGVDYTITGYAVTVERNGRELLWPISINYRT please.
Found: Fulfilled

Lookup: Same question for E13 (designed binder, 10Fn3 clone, Del 1-8) EVVAATPTSLLISWRHPHFPTRYYRITYGETGGNSPVQEFTVPLQPPTATISGLKPGVDYTITGYAVTLEQNGRELMTPISINYRT please.
Found: Fulfilled
